Target: T1, medium-affinity receptor IL-2Rβ/γ on human cells (Mo7e cell line; human CD8+T and NK cells) (human, UniProt P14784 27-551; P31785 23-369)
T1 sequence (looked up) 1: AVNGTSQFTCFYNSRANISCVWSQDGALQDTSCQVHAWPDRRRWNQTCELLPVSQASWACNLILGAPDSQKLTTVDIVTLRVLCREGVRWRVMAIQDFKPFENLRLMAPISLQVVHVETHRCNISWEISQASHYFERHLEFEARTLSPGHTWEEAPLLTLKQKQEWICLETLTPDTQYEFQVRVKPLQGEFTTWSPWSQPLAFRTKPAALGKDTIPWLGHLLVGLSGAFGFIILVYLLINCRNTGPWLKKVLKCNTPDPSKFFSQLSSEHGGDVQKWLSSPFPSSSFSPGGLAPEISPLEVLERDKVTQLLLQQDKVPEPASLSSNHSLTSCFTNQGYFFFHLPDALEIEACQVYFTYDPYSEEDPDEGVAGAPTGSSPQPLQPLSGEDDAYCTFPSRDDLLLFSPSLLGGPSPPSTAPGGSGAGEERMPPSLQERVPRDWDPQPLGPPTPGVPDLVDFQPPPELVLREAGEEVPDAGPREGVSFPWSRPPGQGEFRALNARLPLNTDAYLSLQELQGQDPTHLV
T1 sequence (looked up) 2: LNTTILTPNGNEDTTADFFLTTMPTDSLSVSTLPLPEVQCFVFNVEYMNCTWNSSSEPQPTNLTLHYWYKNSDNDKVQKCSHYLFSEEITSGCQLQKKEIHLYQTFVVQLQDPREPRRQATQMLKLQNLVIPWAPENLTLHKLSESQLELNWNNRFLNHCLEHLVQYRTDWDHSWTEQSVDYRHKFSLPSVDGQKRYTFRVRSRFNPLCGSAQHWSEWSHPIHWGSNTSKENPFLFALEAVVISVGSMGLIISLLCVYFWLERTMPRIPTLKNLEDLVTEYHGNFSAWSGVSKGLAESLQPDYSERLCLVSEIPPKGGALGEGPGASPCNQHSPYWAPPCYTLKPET
Experiment: cell-based or functional assay
property: EC50 (Mo7e cell proliferation) (nM)
Give the number; nM is assumed, so skip it.

Prompt: Query (binder): IL-2-10 (N26Q/N30S/F42A/L72G) (ligand, The entry already carries the mutations and C125A and begins with M. Made in E. coli) MAPTSSSTKKTQLQLEHLLLDLQMILQGINSYKNPKLTRMLTAKFYMPKKATELKHLQCLEEELKPLEEVLNGAQSKNFHLRPRDLISNINVIVLELKGSETTFMCEYADETATIVEFLNRWITFAQSIISTLT ; field requested: EC50 (Mo7e cell proliferation)
Response: 1.78

Prompt: And what about the binder IL-2-22 (N26Q/N29S/F42A/N71Q/L72G) (ligand) MAPTSSSTKKTQLQLEHLLLDLQMILQGISNYKNPKLTRMLTAKFYMPKKATELKHLQCLEEELKPLEEVLQGAQSKNFHLRPRDLISNINVIVLELKGSETTFMCEYADETATIVEFLNRWITFAQSIISTLT ?
Response: 2.84

Prompt: Consider next the binder PEGylated IL-2-10 (ligand, mono-PEGylated with 20 kDa mPEG-butyraldehyde (sodium cyanoborohydride); site not stated, also called PEG-IL-2-10) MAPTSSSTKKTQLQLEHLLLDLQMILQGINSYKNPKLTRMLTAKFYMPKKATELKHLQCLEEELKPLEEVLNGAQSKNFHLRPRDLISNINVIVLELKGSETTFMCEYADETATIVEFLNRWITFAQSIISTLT in the same way.
Response: 13.2

Prompt: Okay, and PEGylated IL-2-22 (ligand, mono-PEGylated with 20 kDa mPEG-butyraldehyde (sodium cyanoborohydride); site not stated, also called PEG-IL-2-22) MAPTSSSTKKTQLQLEHLLLDLQMILQGISNYKNPKLTRMLTAKFYMPKKATELKHLQCLEEELKPLEEVLQGAQSKNFHLRPRDLISNINVIVLELKGSETTFMCEYADETATIVEFLNRWITFAQSIISTLT ?
Response: 34.8

Prompt: Try this binder too: PEGylated IL-2-23 (ligand, mono-PEGylated with 20 kDa mPEG-butyraldehyde (sodium cyanoborohydride); site not stated, also called PEG-IL-2-23) MAPTSSSTKKTCLQLEHLLLDLQMILNGIQSMHIDATLYMPKKATELKHLQCLEEELKPLEEVLNLAQSKNFHLRPRDLISNINVIVLELKGSETTFMCEYADETATIVEFLNRWITFAQSIISTCT
Response: 23.4
